system: VRE 155; type: cell-based; settings: duplicate experiments
Items are presented alongside their recorded MIC values VRE 155.
Hi! Could you send only the number? It should be in µg/mL, unit omitted.

Reference set, count: 3
1) C=C1NC(=O)[C@H]([C@@H](C)CC)NC(=O)[C@H](NC(=O)C(=CC)NC(=O)[C@@H](N)[C@@H](C)CC)CSC[C@@H](C(=O)N[C@H]2C(=O)N3CCC[C@H]3C(=O)NCC(=O)N[C@H](C(=O)N[C@@H](CCCCN)C(=O)NCCCCCCCCCCCC)CS[C@H]2C)NC(=O)[C@H](CC(C)C)NC1=O [(8)] : 2
2) C=C1NC(=O)[C@H]([C@@H](C)CC)NC(=O)[C@H](NC(=O)C(=CC)NC(=O)[C@@H](NC(=O)CCN)[C@@H](C)CC)CSC[C@@H](C(=O)N[C@H]2C(=O)N3CCC[C@H]3C(=O)NCC(=O)N[C@H](C(=O)N[C@@H](CCCCNC(=O)CCN)C(=O)NCCCCCCCCCCCC)CS[C@H]2C)NC(=O)[C@H](CC(C)C)NC1=O [(22)] : 8
3) C=C1NC(=O)[C@H]([C@@H](C)CC)NC(=O)[C@H](NC(=O)C(=CC)NC(=O)[C@@H](N)[C@@H](C)CC)CSC[C@@H](C(=O)N[C@H]2C(=O)N3CCC[C@H]3C(=O)NCC(=O)N[C@H](C(=O)N[C@@H](CCCCN)C(=O)NC/C=C(\C)CC/C=C(\C)CCC=C(C)C)CS[C@H]2C)NC(=O)[C@H](CC(C)C)NC1=O [(12)] : 8

Query: State its MIC values VRE 155 for this compound: C=C1NC(=O)[C@H]([C@@H](C)CC)NC(=O)[C@H](NC(=O)C(=CC)NC(=O)[C@@H](N)[C@@H](C)CC)CSC[C@@H](C(=O)N[C@H]2C(=O)N3CCC[C@H]3C(=O)NCC(=O)N[C@H](C(=O)N[C@@H](CCCCN)C(=O)NCCCCCCCCCCCCC)CS[C@H]2C)NC(=O)[C@H](CC(C)C)NC1=O [(9)]
Reply: 2

Query: State its MIC values VRE 155 for this compound: C=C1NC(=O)[C@H]([C@@H](C)CC)NC(=O)[C@H](NC(=O)C(=CC)NC(=O)[C@@H](N)[C@@H](C)CC)CSC[C@@H](C(=O)N[C@H]2C(=O)N3CCC[C@H]3C(=O)NCC(=O)N[C@H](C(=O)N[C@@H](CCCCN)C(=O)NCCC[N+](C)(C)CCCCCCCCCC)CS[C@H]2C)NC(=O)[C@H](CC(C)C)NC1=O [(14)]
Reply: 4

Query: State its MIC values VRE 155 for this compound: C=C1NC(=O)[C@H]([C@@H](C)CC)NC(=O)[C@H](NC(=O)C(=CC)NC(=O)[C@@H](N)[C@@H](C)CC)CSC[C@@H](C(=O)N[C@H]2C(=O)N3CCC[C@H]3C(=O)NCC(=O)N[C@H](C(=O)N[C@@H](CCCCN)C(=O)NCCCCCCC)CS[C@H]2C)NC(=O)[C@H](CC(C)C)NC1=O [(3)]
Reply: 8

Query: State its MIC values VRE 155 for this compound: C=C1NC(=O)[C@H]([C@@H](C)CC)NC(=O)[C@H](NC(=O)C(=CC)NC(=O)[C@@H](N)[C@@H](C)CC)CSC[C@@H](C(=O)N[C@H]2C(=O)N3CCC[C@H]3C(=O)NCC(=O)N[C@H](C(=O)N[C@@H](CCCCN)C(=O)NCCCCCCCCCCC)CS[C@H]2C)NC(=O)[C@H](CC(C)C)NC1=O [(7)]
Reply: 4

Query: State its MIC values VRE 155 for this compound: C=C1NC(=O)[C@H]([C@@H](C)CC)NC(=O)[C@H](NC(=O)C(=CC)NC(=O)[C@@H](N)[C@@H](C)CC)CSC[C@@H](C(=O)N[C@H]2C(=O)N3CCC[C@H]3C(=O)NCC(=O)N[C@H](C(=O)N[C@@H](CCCCN)C(=O)N[C@@H](Cc3c[nH]cn3)C(=O)NCCCCCCCCCC)CS[C@H]2C)NC(=O)[C@H](CC(C)C)NC1=O [(17)]
Reply: 4

Query: State its MIC values VRE 155 for this compound: C=C1NC(=O)[C@H]([C@@H](C)CC)NC(=O)[C@H](NC(=O)C(=CC)NC(=O)[C@@H](N)[C@@H](C)CC)CSC[C@@H](C(=O)N[C@H]2C(=O)N3CCC[C@H]3C(=O)NCC(=O)N[C@H](C(=O)N[C@@H](CCCCNC(=O)CCN)C(=O)NCCCCCCCCCCCC)CS[C@H]2C)NC(=O)[C@H](CC(C)C)NC1=O [(21)]
Reply: 4

Query: State its MIC values VRE 155 for this compound: C=C1NC(=O)[C@H]([C@@H](C)CC)NC(=O)[C@H](NC(=O)C(=CC)NC(=O)[C@@H](N)[C@@H](C)CC)CSC[C@@H](C(=O)N[C@H]2C(=O)N3CCC[C@H]3C(=O)NCC(=O)N[C@H](C(=O)N[C@@H](CCCCN)C(=O)N[C@@H](Cc3ccc(O)cc3)C(=O)NCCCCCCCCCC)CS[C@H]2C)NC(=O)[C@H](CC(C)C)NC1=O [(18)]
Reply: 2

Query: State its MIC values VRE 155 for this compound: C=C1NC(=O)[C@H]([C@@H](C)CC)NC(=O)[C@H](NC(=O)C(=CC)NC(=O)[C@@H](N)[C@@H](C)CC)CSC[C@@H](C(=O)N[C@H]2C(=O)N3CCC[C@H]3C(=O)NCC(=O)N[C@H](C(=O)N[C@@H](CCCCN)C(=O)N[C@@H](Cc3ccccc3)C(=O)NCCCCCCCCCC)CS[C@H]2C)NC(=O)[C@H](CC(C)C)NC1=O [(16)]
Reply: 2

Query: State its MIC values VRE 155 for this compound: C=C1NC(=O)[C@H]([C@@H](C)CC)NC(=O)[C@H](NC(=O)C(=CC)NC(=O)[C@@H](N)[C@@H](C)CC)CSC[C@@H](C(=O)N[C@H]2C(=O)N3CCC[C@H]3C(=O)NCC(=O)N[C@H](C(=O)N[C@@H](CCCCNC(C)=O)C(=O)NCCCCCCCCCCCC)CS[C@H]2C)NC(=O)[C@H](CC(C)C)NC1=O [Compound (20)]
Reply: 4

###

Items are presented alongside their recorded remaining at 24 h, 0.15 mg/mL.
assay: Serum stability; type: in vitro ADME; details: human serum, 37° C., after 24 hours; read-out: stability in human serum, remained intact

Query: State its remaining at 24 h, 0.15 mg/mL for this compound: `C=C1NC(=O)[C@H]([C@@H](C)CC)NC(=O)[C@H](NC(=O)C(=CC)NC(=O)[C@@H](N)[C@@H](C)CC)CSC[C@@H](C(=O)N[C@H]2C(=O)N3CCC[C@H]3C(=O)NCC(=O)N[C@H](C(=O)N[C@@H](CCCCN)C(=O)NCCCCCCCCCC)CS[C@H]2C)NC(=O)[C@H](CC(C)C)NC1=O`
Reply: 94%

Query: State its remaining at 24 h, 0.15 mg/mL for this compound: `C=C1NC(=O)[C@H]([C@@H](C)CC)NC(=O)[C@H](NC(=O)C(=CC)NC(=O)[C@@H](N)[C@@H](C)CC)CSC[C@@H](C(=O)N[C@H]2C(=O)N3CCC[C@H]3C(=O)NCC(=O)N[C@H](C(=O)N[C@@H](CCCCN)C(=O)NC/C=C(\C)CC/C=C(\C)CCC=C(C)C)CS[C@H]2C)NC(=O)[C@H](CC(C)C)NC1=O`
Reply: > 50%

Query: State its remaining at 24 h, 0.15 mg/mL for this compound: `C=C1NC(=O)[C@H]([C@@H](C)CC)NC(=O)[C@H](NC(=O)C(=CC)NC(=O)[C@@H](N)[C@@H](C)CC)CSC[C@@H](C(=O)N[C@H]2C(=O)N3CCC[C@H]3C(=O)NCC(=O)N[C@H](C(=O)N[C@@H](CCCCN)C(=O)NCCCCCCCCCCCCCC)CS[C@H]2C)NC(=O)[C@H](CC(C)C)NC1=O`
Reply: > 50%

###

tested on: MRSA USA300; type: cell-based, Staphylococcus aureus; conditions: duplicate experiments
Items are presented alongside their recorded MIC values MRSA USA300.
Hi! Could you send only the number? It should be in µg/mL, unit omitted.

Reference set, count: 2
1. C=C1NC(=O)[C@H]([C@@H](C)CC)NC(=O)[C@H](NC(=O)C(=CC)NC(=O)[C@@H](N)[C@@H](C)CC)CSC[C@@H](C(=O)N[C@H]2C(=O)N3CCC[C@H]3C(=O)NCC(=O)N[C@H](C(=O)N[C@@H](CCCCN)C(=O)NCCCCCCCC)CS[C@H]2C)NC(=O)[C@H](CC(C)C)NC1=O [(4)] : 64
2. C=C1NC(=O)[C@H]([C@@H](C)CC)NC(=O)[C@H](NC(=O)C(=CC)NC(=O)[C@@H](N)[C@@H](C)CC)CSC[C@@H](C(=O)N[C@H]2C(=O)N3CCC[C@H]3C(=O)NCC(=O)N[C@H](C(=O)N[C@@H](CCCCN)C(=O)N[C@@H](Cc3c[nH]c4ccccc34)C(=O)NCCCCCCCCCC)CS[C@H]2C)NC(=O)[C@H](CC(C)C)NC1=O [(15)] : 8

Continue with the next compound.
Query: State its MIC values MRSA USA300 for this compound: C=C1NC(=O)[C@H]([C@@H](C)CC)NC(=O)[C@H](NC(=O)C(=CC)NC(=O)[C@@H](N)[C@@H](C)CC)CSC[C@@H](C(=O)N[C@H]2C(=O)N3CCC[C@H]3C(=O)NCC(=O)N[C@H](C(=O)N[C@@H](CCCCN)C(=O)NCCCCCCCCCCC)CS[C@H]2C)NC(=O)[C@H](CC(C)C)NC1=O [(7)]
Reply: 16
